Target: T1, human PCSK9 (proprotein convertase subtilisin/kexin type 9), His-tagged, full-length (human, UniProt A8T644 31-152; Q8NBP7 153-692, limits assumed)
T1 construct: The secreted protein is the prodomain plus the catalytic/Cys-rich part (N-terminus S153) after autocleavage; also called His-PCSK9; NARC-1
T1 sequence (A8T644 31-152 limits assumed, chain 1 of 2): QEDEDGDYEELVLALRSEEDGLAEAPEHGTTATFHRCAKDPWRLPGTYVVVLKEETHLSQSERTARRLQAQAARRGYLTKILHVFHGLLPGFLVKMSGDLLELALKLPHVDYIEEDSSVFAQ
T1 sequence (A8T644 other isoform, or with tags, fused parts or gaps limits assumed, chain 2 of 2): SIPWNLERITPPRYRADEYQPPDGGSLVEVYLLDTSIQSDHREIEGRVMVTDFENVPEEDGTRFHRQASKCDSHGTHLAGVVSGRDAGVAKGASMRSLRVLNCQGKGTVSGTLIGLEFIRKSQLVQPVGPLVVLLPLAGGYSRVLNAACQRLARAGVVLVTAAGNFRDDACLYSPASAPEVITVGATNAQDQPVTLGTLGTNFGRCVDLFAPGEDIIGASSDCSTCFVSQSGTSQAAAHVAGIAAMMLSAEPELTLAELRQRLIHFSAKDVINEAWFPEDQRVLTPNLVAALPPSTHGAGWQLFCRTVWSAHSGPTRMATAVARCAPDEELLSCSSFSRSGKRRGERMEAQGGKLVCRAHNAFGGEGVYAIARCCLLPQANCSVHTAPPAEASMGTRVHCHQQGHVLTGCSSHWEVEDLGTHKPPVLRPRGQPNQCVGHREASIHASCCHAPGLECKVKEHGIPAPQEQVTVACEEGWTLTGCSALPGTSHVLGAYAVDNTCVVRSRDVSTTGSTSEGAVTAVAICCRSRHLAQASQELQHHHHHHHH
Assay: SPR, Biacore T100, NTA capture, single cycle kinetics (Method 2)
Bridge positions count the residues as written; N and C are the ends.
Observed Property: Kd (µM)

Binder: Ac-SPCRVGYTPC-NH2 (disulfide 3-10 (inferred)) [Compound 23]
Endpoint Value: 5.74
